Known EC50 of a selection of compounds
system: primary human fibroblasts derived from IPF patients (LL29 cells); assay: Inhibition of fibrotic process: αSMA staining in TGF-β1-treated primary human fibroblasts from IPF patients (LL29 cells); assay type: cell-based; settings: Fibroblast, 96 h, LL29 cells treated with TGF-β1 (20 ng/mL), 4 days, 11-point dose-response from 10 μM to 1.87 nM, read-out: Inhibition of fibrosis EC50
Record the value in nM, omitting the unit from your answer.

Here is how some compounds turned out for EC50.
{"columns": ["QUERY SMILES", "EC50, nM"],
 "data": [
  ["Cc1ccc(-c2cncc3[nH]c(-c4n[nH]c5cnc(-c6cncc(NC(=O)C7CCC7)c6)cc45)nc23)s1", 19],
  ["O=C(Nc1cncc(-c2cc3c(-c4nc5c(-c6ccccc6F)cncc5[nH]4)n[nH]c3cn2)c1)C1CCCC1", 4330],
  ["Cc1ccc(-c2cncc3[nH]c(-c4n[nH]c5cnc(-c6cncc(CN7CCCCC7)c6)cc45)nc23)s1", 251],
  ["CCCCC(=O)Nc1cncc(-c2cc3c(-c4nc5c(-c6ccc(C)s6)cncc5[nH]4)n[nH]c3cn2)c1", 110],
  ["CCCC(=O)Nc1cncc(-c2cc3c(-c4nc5c(-c6ccccc6F)cncc5[nH]4)n[nH]c3cn2)c1", 44],
  ["CC(C)(C)C(=O)Nc1cncc(-c2cc3c(-c4nc5c(-c6cccc(F)c6)cncc5[nH]4)n[nH]c3cn2)c1", 47]
]}

EC50 for CN(C)CCNc1cc(F)cc(-c2cncc3[nH]c(-c4n[nH]c5cnc(-c6cncc(N(C)C)c6)cc45)nc23)c1 ?
2030

One more compound: CCC(=O)Nc1cncc(-c2cc3c(-c4nc5c(-c6cccs6)cncc5[nH]4)n[nH]c3cn2)c1
319

Source of measurements: patent US10052331B2
